System: HCT-15 colon
Test: NCI-60 one-dose screen, 48 h
Details: 10 µM unless noted
Description: Growth inhibition of the HCT-15 human tumor cell line is measured as a screen for anti-cancer activity. Cells are grown in 96 well plates and exposed to the test compound for 48 hours. Compounds are tested at a single concentration, which is 10^-5 M for most compounds. The reported endpoint is percent growth (GI% or GIPRCNT), where numbers from 0 - 100% represent growth inhibition, and numbers from -100% - 0 represent cell death. For example, a value of 40 represents 60% growth inhibition. […]
Compounds without any hit were thinned out: in the full panel of roughly 83,000, 20% have a hit. The source made the active and inactive calls. Rule for the calls: active = growth percent below 10; inactive = the rest.
Response enum: True for active, False for inactive

What did this assay record as the result for `c1cnc2[nH]cc(-c3csc(-c4cn(CCCCN5CCOCC5)c5ccccc45)n3)c2c1` ?
True

What did this assay record as the result for C[S+]1C=Cc2ccccc2C1c1ccc(Cl)cc1 (stereo unspecified) ?
False

What did this assay record as the result for `Cc1cc(-c2nc3cc(F)ccc3[se]2)cc(F)c1N` ?
False

---

System: HCT-15 colon
Experiment: NCI-60 one-dose screen, 48 h (100 = growth as untreated, 0 = no growth, -100 = all killed)
Details: 10 µM unless noted
The panel holds about 83,000 compounds, 20% with a hit somewhere; the sample as a whole holds those more often. Calls of active or inactive are those of the source. Rule for the calls: active = growth percent below 10; inactive = the rest.
Experimental Readout: growth

Worked cases, answers included:
Molecule	growth
CC(C)=CCC/C(C)=C/C=N\N=C(/N)N[N+](=O)[O-]	97.6% (inactive)
CC[C@H](C)[C@H](NC(=O)C12C3C4C1C1C2C3C41NC(C)=O)C(=O)N(C)[C@H](C[C@@H](OC(C)=O)c1nc(C(=O)N[C@@H](Cc2ccccc2)C[C@H](C)C(=O)OC)cs1)C(C)C (stereo partly specified)	24.8% (inactive)
Clc1ccc(N2COOC3(OOC2)C2CC4CC(C2)CC3C4)cc1	64% (inactive)
C#C[C@]1(OC(=O)CCCCCC)CC[C@H]2[C@@H]3CCC4=CC(=O)CC[C@@H]4[C@H]3CC[C@@]21C	39.9% (inactive)
COC1=CC(=O)O[C@@H](/C=C/c2ccc3c(c2)OCO3)C1	103% (inactive)
CCC[CH2][Sn]([CH2]CCC)([CH2]CCC)[O]c1ccc(Cl)cc1Cl	-62.5% (active)

If you can, please state the reported growth value of `CC[C@H](C)[C@H](NC(=O)[C@H]1CCCCN1C)C(=O)N(C)[C@H](C[C@@H](OC(C)=O)c1nc(C(=O)NC23CC(C(=O)OC)(C2)C3)cs1)C(C)C` .
6.1% (active)

If you can, please state the reported growth value of `CC(C)CCC(=O)O[C@H]1CC[C@H]2[C@@H]3CCC4=CC(=O)CC[C@]4(C)[C@H]3CC[C@]12C` .
97.4% (inactive)

If you can, please state the reported growth value of `C/C(=C\c1ccn(-c2ccc(N)cc2)n1)[C@@H]1C[C@@H]2O[C@]2(C)CCC[C@H](C)[C@H](O)[C@@H](C)C(=O)C(C)(C)[C@@H](O)CC(=O)O1` .
20% (inactive)

---

Test system: HOP-92 NSCLC
Experiment: NCI-60 one-dose screen, 48 h
Details: 10 µM unless noted
Compounds without any hit were thinned out: in the full panel of roughly 83,000, 20% have a hit. The source made the active and inactive calls. Rule for the calls: active = growth percent below 10; inactive = the rest.
Response enum: Y for active, N for inactive

What did this assay record as the result for `O=C1NC(=O)C(=Cc2cn(C(=O)c3ccccc3)c3ccccc23)C(=O)N1` ?
N

What did this assay record as the result for `O=C(O)c1ccc([S-])cc1.[Au+].c1ccc(CN2[CH-]N(Cc3ccccc3)C(c3ccccc3)=C2c2ccccc2)cc1` ?
Y

What did this assay record as the result for `OCCCCCNC1CCCCC1` ?
N

What did this assay record as the result for `[Au+].[N-]=C=O.c1ccc(CN2[CH-]N(Cc3ccccc3)C(c3ccccc3)=C2c2ccccc2)cc1` ?
N

What did this assay record as the result for O=[N+]([O-])c1ccc(OP(=O)(CCl)N(CCCl)CCCl)cc1 (stereo not given) ?
N

---

System: UACC-257 melanoma
Test: NCI-60 one-dose screen, 48 h
Conditions: 10 µM unless noted
Compounds without any hit were thinned out: in the full panel of roughly 83,000, 20% have a hit. The source made the active and inactive calls. The calls were made as follows: active = growth percent below 10; inactive = the rest.
Response enum: class 1 = active, class 0 = inactive

Compound	Target Under Test	Group
CC(=O)O[C@H](C[C@H](C(C)C)N(C)C(=O)[C@@H](NC(=O)[C@H]1CCCCN1C)C(C)C)c1nc(C(=O)N[C@@H](Cc2ccccc2)C[C@H](C)C(=O)O)c(C)s1	UACC-257 melanoma	class 0
CCC1CC(O)c2c(O)c3c(c(O)c2C1O)C(=O)c1cccc(O)c1C3=O (configuration not stated) (tested in a mixture with another compound)	UACC-257 melanoma	class 1
C[C@@H]1C[C@@]2(C)[C@@H](CC[C@@H]3[C@@H]2CC[C@]2(C)C(=O)CC[C@@H]32)CC1=O	UACC-257 melanoma	class 0
COC(=O)[C@@H](C)C[C@H](Cc1ccccc1)NC(=O)c1nc([C@@H](C[C@H](C(C)C)N(C)C(=O)[C@@H](NC(=O)[C@H]2CCCCN2C)C(C)C)OC(C)=O)sc1C(C)C	UACC-257 melanoma	class 0
O=C1C2C(C(=O)[N]1[Hg][c]1ccccc1)C1(Cl)C(Cl)=C(Cl)C2(Cl)C1(Cl)Cl (configuration not stated)	UACC-257 melanoma	class 1

What did this assay record as the result for O=C([O][Hg][CH2]C1COCC([CH2][Hg][O]C(=O)c2ccccc2)O1)c1ccccc1 (configuration not stated) ?
class 1

What did this assay record as the result for Cc1cccc(N2CCN(C(C)C#N)CC2)c1 (configuration not stated) ?
class 0

What did this assay record as the result for `CC(C)[C@]12O[C@H]1[C@@H]1O[C@]13[C@]1(O[C@H]1C[C@H]1c4c(C(=O)c5ccccc5)oc(OC(=O)c5ccccc5)c4CC[C@@]13C)[C@@H]2O` ?
class 1

What did this assay record as the result for `Nc1c(F)cc(-c2nc3cc(F)ccc3[se]2)cc1Br` ?
class 0

What did this assay record as the result for `CN1C(=O)C(=Cc2cn(Cc3ccccc3)c3ccccc23)C(=O)N(C)C1=O` ?
class 0

What did this assay record as the result for `CCCCCCCCOC(=O)CCN1CC1` ?
class 0

What did this assay record as the result for `COC(=O)[C@@H](C)C[C@H](Cc1ccccc1)NC(=O)c1csc([C@@H](C[C@H](C(C)C)N(C)C(=O)C2(NC(=O)[C@H]3CCCCN3C)CC2)OC(C)=O)n1` ?
class 0

What did this assay record as the result for O=[N+]([O-])c1ccc([Se]C2CCCCC2Cl)c([N+](=O)[O-])c1 (configuration not stated) ?
class 0

What did this assay record as the result for `Nc1c(F)cc(-c2nc3cc(F)ccc3[se]2)cc1F` ?
class 0

What did this assay record as the result for CC(CO)NC1CCCCC1 (configuration not stated) ?
class 0

What did this assay record as the result for `CC(=O)ONc1ccc([N+](=O)[O-])c(C(F)(F)F)c1` ?
class 0

What did this assay record as the result for CC[C@H](C)[C@H](NC(=O)C12C3C4C1C1C2C3C41NC)C(=O)N(C)[C@H](C[C@@H](OC(C)=O)c1nc(C(=O)N[C@@H](Cc2ccccc2)C[C@H](C)C(=O)OC)cs1)C(C)C (some centres not stated) ?
class 0

---

Test system: HT29 colon
Experiment: NCI-60 one-dose screen, 48 h (100 = growth as untreated, 0 = no growth, -100 = all killed)
Conditions: 10 µM unless noted
This is part of a sample that, as a whole, favours compounds with a hit. Of some 83,000 tested, about 20% had one in any assay. The source made the active and inactive calls. How the source made its calls: active means growth percent below 10; inactive means the rest.
Recorded growth values for a group of compounds are listed next.

If you can, please state the reported growth value of `Cn1cc(-c2csc(-c3cn(CCN4CCOCC4)c4ccc(F)cc34)n2)c2cccnc21` .
40.1% (inactive)

If you can, please state the reported growth value of O=C([O][Hg][CH2]C1OCCOC1[CH2][Hg][O]C(=O)c1ccccc1)c1ccccc1 (centres undefined) .
83.6% (inactive)

If you can, please state the reported growth value of `CC(=O)O[C@H]1C(=O)[C@@]2(C)[C@H]([C@H](OC(=O)c3ccccc3)[C@]3(O)C[C@H](OC(=O)[C@H](OC(=O)OC[C@H]4COC(C)(C)O4)[C@@H](NC(=O)c4ccccc4)c4ccccc4)C(C)=C1C3(C)C)[C@]1(OC(C)=O)CO[C@@H]1C[C@@H]2O` .
2.46% (active)

---

Recorded growth values for a group of compounds are listed next.
Test system: UO-31 renal
Assay: NCI-60 one-dose screen, 48 h (100 = growth as untreated, 0 = no growth, -100 = all killed)
Conditions: 10 µM unless noted
About 83,000 compounds went through this panel and 20% of them were active in at least one assay; those are over-represented in the sample as a whole. Activity calls are given as the source filed them. How the source made its calls: active means growth percent below 10; inactive means the rest.

Worked cases, answers included:
Compound	Experimental Readout	Observed Result
COC(=O)[C@@H](C[C@H](Cc1ccccc1)NC(=O)c1csc([C@@H](C[C@H](C(C)C)N(C)C(=O)[C@@H](NC(=O)[C@H]2CCCCN2C)C(C)C)OC(C)=O)n1)NC(=O)OCc1ccccc1	growth	27.3% [9.5 µM] (inactive)
CC[C@H](C)[C@H](NC(=O)[C@H]1CCCCN1C)C(=O)N(C)[C@H](C[C@@H](OC(C)=O)c1nc(C(=O)N[C@@H](Cc2ccccc2)C[C@H](C)C(=O)OC)cs1)C(C)C	growth	40.3% (inactive)
Cc1ccc2c(C(C[N+](=O)[O-])c3cccs3)c(-c3ccccc3)[nH]c2c1 (centres undefined)	growth	34.8% (inactive)

If you can, please state the reported growth value of `COc1cc2c(cc1OCc1ccccc1)C(CC(C)C)=[N+](C)CC2` .
87.9% (inactive)
